molecular target: PAK1 (Homo sapiens, UniProt Q13153); experiment: In vitro PAK inhibition assay (Z'-LYTE, SelectScreen), PAK1; type: biochemical; conditions: read-out: PAK1 IC50
Sequence (Q13153 whole entry): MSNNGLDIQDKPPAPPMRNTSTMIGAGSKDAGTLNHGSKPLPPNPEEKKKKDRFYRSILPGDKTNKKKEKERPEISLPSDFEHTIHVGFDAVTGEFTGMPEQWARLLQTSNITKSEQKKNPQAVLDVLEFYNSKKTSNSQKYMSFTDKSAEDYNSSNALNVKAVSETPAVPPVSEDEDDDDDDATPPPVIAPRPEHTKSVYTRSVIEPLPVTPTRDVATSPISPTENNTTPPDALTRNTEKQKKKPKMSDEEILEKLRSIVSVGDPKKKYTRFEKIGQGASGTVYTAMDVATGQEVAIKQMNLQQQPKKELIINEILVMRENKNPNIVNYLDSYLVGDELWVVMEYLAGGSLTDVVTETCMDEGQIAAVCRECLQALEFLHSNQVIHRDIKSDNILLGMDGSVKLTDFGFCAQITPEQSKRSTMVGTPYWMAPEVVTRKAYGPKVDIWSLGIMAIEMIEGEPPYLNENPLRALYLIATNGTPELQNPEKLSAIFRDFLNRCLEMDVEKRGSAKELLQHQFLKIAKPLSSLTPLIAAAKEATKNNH
property.name: IC50

Before answering, review these 3 worked examples.
{"compound": "CCn1c(=O)c(-c2ccc(-c3ccnc(C)n3)cc2Cl)cc2cnc(NC3CCOCC3)nc21", "IC50": "50 to 500 nM"}
{"compound": "Cc1nccnc1-c1ccc(-c2cc3cnc(NC4CCOCC4)nc3n(Cc3ccccc3)c2=O)c(Cl)c1", "IC50": "< 50 nM"}
{"compound": "CCn1c(=O)c(-c2cc(C)c(-c3cncc(C)n3)cc2Cl)cc2cnc(N[C@@H]3CCOC3)nc21", "IC50": "< 50 nM"}

Report measured IC50; entry is CCn1c(=O)c(-c2ccc(-c3nccnc3C)cc2Cl)cc2cnc(NC3CCCNC3)nc21 (centres unmarked)
50 to 500 nM

----------
target: UniProt:O75914; experiment: In vitro PAK inhibition assay (Z'-LYTE, SelectScreen), PAK3; format: biochemical; conditions: read-out: PAK3 IC50
Sequence (O75914 1-544 isoform O75914-2): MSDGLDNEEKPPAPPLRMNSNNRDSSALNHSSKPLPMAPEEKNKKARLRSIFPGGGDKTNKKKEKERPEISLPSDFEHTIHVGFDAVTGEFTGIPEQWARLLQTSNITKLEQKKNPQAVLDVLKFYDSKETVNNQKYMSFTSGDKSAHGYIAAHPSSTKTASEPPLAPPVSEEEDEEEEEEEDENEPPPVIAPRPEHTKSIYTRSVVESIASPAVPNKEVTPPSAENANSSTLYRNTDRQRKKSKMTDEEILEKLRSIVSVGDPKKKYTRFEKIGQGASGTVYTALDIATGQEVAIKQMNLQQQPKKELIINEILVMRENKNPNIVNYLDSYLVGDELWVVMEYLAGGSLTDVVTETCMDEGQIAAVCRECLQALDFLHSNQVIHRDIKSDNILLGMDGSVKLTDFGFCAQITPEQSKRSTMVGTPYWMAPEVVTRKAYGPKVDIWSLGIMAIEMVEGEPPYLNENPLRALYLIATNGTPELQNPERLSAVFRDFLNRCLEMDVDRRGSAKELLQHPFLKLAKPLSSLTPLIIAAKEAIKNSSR
property.name: IC50

{"molecule": "Cc1cncc(-c2ccc(-c3cc4cnc(NC5CCOCC5)nc4n(C4CCCC4)c3=O)c(Cl)c2)n1 [Example 89]", "result": "50 to 500 nM"}
{"molecule": "CCn1c(=O)c(-c2ccc(-c3cccnc3OC)cc2Cl)cc2cnc(NC3CCOCC3)nc21 [Example 52]", "result": "> 5000 nM"}

Then there is this molecule:
Report measured IC50; entry is CCn1c(=O)c(-c2ccc(-c3cccnc3F)cc2Cl)cc2cnc(NC3CCOCC3)nc21 [Example 12]
< 50 nM

----------
Catalogue of pIC50 readings, one per entry.
Target: UniProtKB O75914
Assay: In vitro PAK inhibition assay (Z'-LYTE, SelectScreen), PAK3
Type: biochemical
Settings: read-out: PAK3 IC50
Description: Compounds are screened in 1% DMSO (final) in the well. For 10 point titrations, 3-fold serial dilutions are conducted. All Peptide/Kinase Mixtures are diluted to a 2× working concentration in the appropriate Kinase Buffer […] 7. Determine the fluorescence using a fluorescence plate reader […] The representative IC50 value with a known inhibitor for each kinase was determined at the ATP bin nearest to the ATP Km app.
pIC50: −log10 of the molar value.

Given `CCn1c(=O)c(-c2ccc(-c3ccncc3)cc2Cl)cc2cnc(NC3CCOCC3)nc21` , report its pIC50 on UniProtKB O75914.
< 5.30

Given CCn1c(=O)c(-c2cc(C)c(-c3noc(C)n3)cc2Cl)cc2cnc(N[C@@H]3CCOC3)nc21 [Example 92] , report its pIC50 on UniProtKB O75914.
6.30 to 7.30

Given `CCn1c(=O)c(-c2ccc(-c3cncc(C)n3)cc2Cl)cc2cnc(NC3CCOCC3)nc21` , report its pIC50 on UniProtKB O75914.
6.30 to 7.30

Given `CCn1c(=O)c(-c2ccc(-c3ccncc3C)cc2Cl)cc2cnc(NC3CCOCC3)nc21` , report its pIC50 on UniProtKB O75914.
5.30 to 6.30

Given `CCn1c(=O)c(-c2ccc(-c3cncc(C)n3)cc2Cl)cc2cnc(N[C@H]3CCOC3)nc21` , report its pIC50 on UniProtKB O75914.
6.30 to 7.30

Given CCn1c(=O)c(-c2ccc(-c3cncc(C)n3)cc2Cl)cc2cnc(NC3CCOC(C)(C)C3)nc21 (centres unmarked) , report its pIC50 on UniProtKB O75914.
6.30 to 7.30

Given `Cc1cncc(-c2ccc(-c3cc4cnc(NCC5CC5)nc4n([C@H]4CC[C@H](N)CC4)c3=O)c(Cl)c2)n1` , report its pIC50 on UniProtKB O75914.
> 7.30

----------
biological target: PAK2 (PAK65) (Homo sapiens); experiment: In vitro PAK inhibition assay (Z'-LYTE, SelectScreen), PAK2; type: biochemical; conditions: read-out: PAK2 IC50
Sequence (Q13177 whole entry): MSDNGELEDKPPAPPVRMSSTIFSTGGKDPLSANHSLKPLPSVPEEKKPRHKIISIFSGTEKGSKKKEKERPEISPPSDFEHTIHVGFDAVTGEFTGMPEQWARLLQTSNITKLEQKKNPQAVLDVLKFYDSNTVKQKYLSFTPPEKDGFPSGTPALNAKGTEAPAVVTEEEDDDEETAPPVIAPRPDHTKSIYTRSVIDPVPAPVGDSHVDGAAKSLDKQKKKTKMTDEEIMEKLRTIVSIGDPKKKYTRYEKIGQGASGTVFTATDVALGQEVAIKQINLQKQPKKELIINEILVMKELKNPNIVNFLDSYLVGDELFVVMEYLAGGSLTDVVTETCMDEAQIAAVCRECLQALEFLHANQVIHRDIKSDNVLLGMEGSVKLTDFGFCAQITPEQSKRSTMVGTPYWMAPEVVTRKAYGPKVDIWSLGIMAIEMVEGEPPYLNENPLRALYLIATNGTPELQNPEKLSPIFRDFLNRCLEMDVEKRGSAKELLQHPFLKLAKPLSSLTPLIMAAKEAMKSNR
pIC50: −log10 of the molar value.
property.name: pIC50

Report measured pIC50; entry is CCn1c(=O)c(-c2ccc(-c3ccnc(C)n3)cc2Cl)cc2cnc(NC3CCOCC3)nc21 [Example 8]
6.30 to 7.30

Report measured pIC50; entry is Cc1cncc(-c2ccc(-c3cc4cnc(N[C@H]5CCOC5)nc4n(CCCN)c3=O)c(Cl)c2)n1 [Example 98]
> 7.30

Report measured pIC50; entry is CCn1c(=O)c(-c2ccc(-c3cnccc3C)cc2Cl)cc2cnc(N[C@@H]3CCOC3)nc21 [Example 49]
5.30 to 6.30

Report measured pIC50; entry is CCn1c(=O)c(-c2ccc(-c3nccnc3C)cc2Cl)cc2cnc(NC3C[C@@H](C)O[C@@H](C)C3)nc21 (stereo partly shown) [Example 38]
> 7.30

Report measured pIC50; entry is Cc1cncc(-c2ccc(-c3cc4cnc(NC5CCCCC5)nc4n([C@H]4CC[C@H](N)CC4)c3=O)c(Cl)c2)n1 [Example 114]
> 7.30

Report measured pIC50; entry is CCn1c(=O)c(-c2ccc(-c3noc(C)n3)cc2Cl)cc2cnc(N[C@H]3CC[C@H](N)CC3)nc21 [Example 94]
6.30 to 7.30

Report measured pIC50; entry is CCn1c(=O)c(-c2ccc(-c3nccnc3C)cc2Cl)cc2cnc(NCCC3CCNCC3)nc21 [Example 136]
> 7.30

Report measured pIC50; entry is CCn1c(=O)c(-c2ccc(-c3nccnc3C)cc2Cl)cc2cnc(NC3CCN(C)CC3)nc21 [Example 5]
5.30 to 6.30

Report measured pIC50; entry is CCn1c(=O)c(-c2ccc(-c3nccnc3C)cc2Cl)cc2cnc(NC3CCOC(C)(C)C3)nc21 (racemic) [Example 30]
> 7.30

Report measured pIC50; entry is CCn1c(=O)c(-c2ccc(-c3ccc(C)nc3)cc2Cl)cc2cnc(N[C@@H]3CCOC3)nc21 [Example 56]
6.30 to 7.30

----------
Catalogue of IC50 readings, one per entry.
target: PAK1 (Homo sapiens); assay: Additional in vitro PAK1 inhibition assay at ATP 10 uM and 1 mM; format: biochemical; details: 10 μM ATP; read-out: PAK1 IC50 (10 μM ATP)

{"molecule": "CCn1c(=O)c(-c2ccc(-c3noc(C)n3)cc2Cl)cc2cnc(NCCCO)nc21", "IC50": "50 to 500 nM"}
{"molecule": "Cc1nc(-c2ccc(-c3cc4cnc(NC5CCOCC5)nc4n(Cc4ccc(CN)cc4)c3=O)c(Cl)c2)no1 [drawing 341]", "IC50": "< 50 nM"}
{"molecule": "CCn1c(=O)c(-c2ccc(-c3noc(C)n3)cc2Cl)cc2cnc(NCc3ccncc3)nc21", "IC50": "50 to 500 nM"}
{"molecule": "Cc1nc(-c2ccc(-c3cc4cnc(NC5CCOCC5)nc4n(Cc4ccc(CCN)cc4)c3=O)c(Cl)c2)no1 [drawing 338]", "IC50": "< 50 nM"}

Report measured IC50; entry is `Cc1nc(-c2ccc(-c3cc4cnc(NC5CCOCC5)nc4n(CC(=O)NC4CCNCC4)c3=O)c(Cl)c2)no1`
500 to 5000 nM

Report measured IC50; entry is CCn1c(=O)c(-c2ccc(-c3noc(C)n3)cc2Cl)cc2cnc(NCCC3CCN(C)CC3)nc21 [drawing 361]
50 to 500 nM

Report measured IC50; entry is Cc1nc(-c2ccc(-c3cc4cnc(NC5CCOCC5)nc4n(CC(=O)NC4CCNC4)c3=O)c(Cl)c2)no1 (centres unmarked) [drawing 346]
50 to 500 nM

Report measured IC50; entry is Cc1nc(-c2ccc(-c3cc4cnc(NC5CCOCC5)nc4n(Cc4cccc(CN)c4)c3=O)c(Cl)c2)no1 [drawing 342]
< 50 nM

Report measured IC50; entry is `CCn1c(=O)c(-c2ccc(-c3noc(C)n3)cc2Cl)cc2cnc(N[C@H]3COC[C@H]3O)nc21`
500 to 5000 nM

Report measured IC50; entry is Cc1nc(-c2ccc(-c3cc4cnc(NC5CCOCC5)nc4n(CC4CCCNC4)c3=O)c(Cl)c2)no1 (centres unmarked)
50 to 500 nM

Report measured IC50; entry is `CCn1c(=O)c(-c2ccc(-c3noc(C)n3)cc2Cl)cc2cnc(NCCCOC)nc21`
500 to 5000 nM

Report measured IC50; entry is `Cc1nc(-c2ccc(-c3cc4cnc(NC5CC5)nc4n(Cc4cccc(CN(C)C)c4)c3=O)c(Cl)c2)no1`
50 to 500 nM

Report measured IC50; entry is CCn1c(=O)c(-c2ccc(-c3noc(C)n3)cc2Cl)cc2cnc(NCC3CCCO3)nc21 (centres unmarked)
500 to 5000 nM

Report measured IC50; entry is CCn1c(=O)c(-c2ccc(-c3noc(C)n3)cc2Cl)cc2cnc(NC3CCOC(C)(C)C3)nc21 (centres unmarked)
50 to 500 nM

Report measured IC50; entry is Cc1nc(-c2ccc(-c3cc4cnc(NC5CCOCC5)nc4n(C4CCOC(C)(C)C4)c3=O)c(Cl)c2)no1 (centres unmarked)
< 50 nM

Report measured IC50; entry is `CCn1c(=O)c(-c2ccc(-c3noc(C)n3)cc2Cl)cc2cnc(NCC(=O)N(C)C)nc21`
≥ 5000 nM

Report measured IC50; entry is `CCn1c(=O)c(-c2ccc(-c3noc(C)n3)cc2Cl)cc2cnc(N[C@@H]3C[C@H]3C)nc21`
50 to 500 nM

Report measured IC50; entry is Cc1nc(-c2ccc(-c3cc4cnc(NC5CCOCC5)nc4n(C4CCN(C5CCNCC5)C4)c3=O)c(Cl)c2)no1 (centres unmarked)
50 to 500 nM

Report measured IC50; entry is `Cc1nc(-c2ccc(-c3cc4cnc(NC5CCOCC5)nc4n(CC4CCN(C)CC4)c3=O)c(Cl)c2)no1`
50 to 500 nM

Report measured IC50; entry is `CCn1c(=O)c(-c2ccc(-c3noc(C)n3)cc2Cl)cc2cnc(N[C@@H]3CCO[C@@H]3N3CCN(C)CC3)nc21`
50 to 500 nM
